The reader will find reported IC50 values listed item by item below.
- study_target: recombinant human DPP9 (rhDPP9) (Homo sapiens (Human))
- protocol_description: Inhibition of DPP9 activity, 10 ng rhDPP9, H-Gly-Pro-AMC
- Type: biochemical
- experimental_parameters: Table 3B

Query block: # query: IC50 of entry COc1ccc(-c2ccc3nccc(C(=O)NCC(=O)N4CC(F)(F)C[C@H]4C#N)c3c2)cc1
Result block: < 1000 nM

Query block: # query: IC50 of entry N#C[C@@H]1CC(F)(F)CN1C(=O)CNC(=O)c1ccnc2ccc(-c3ccc4[nH]ncc4c3)cc12
Result block: < 1000 nM

Query block: # query: IC50 of entry CNC(=O)c1ccc(-c2ccc3nccc(C(=O)NCC(=O)N4CC(F)(F)C[C@H]4C#N)c3c2)cc1
Result block: < 1000 nM

Query block: # query: IC50 of entry Cc1ccc(-c2ccc3nccc(C(=O)NCC(=O)N4CC(F)(F)C[C@H]4C#N)c3c2)cn1
Result block: < 1000 nM

Query block: # query: IC50 of entry N#C[C@@H]1CC(F)(F)CN1C(=O)CNC(=O)c1ccnc2ccc(-c3ccc4c(c3)CCCN4)cc12
Result block: < 1000 nM

Query block: # query: IC50 of entry C[C@H](NC(=O)c1ccncc1-c1ccccc1)C(=O)N1CC(F)(F)C[C@H]1C#N
Result block: > 10000 nM

Query block: # query: IC50 of entry CN1CCc2cc(-c3ccc4nccc(C(=O)NCC(=O)N5CC(F)(F)C[C@H]5C#N)c4c3)ccc2C1=O
Result block: < 1000 nM

---

- study_target: recombinant human DPPIV (rhDPPIV) (Homo sapiens (Human))
- protocol_description: DPPIV enzymatic activity assay
- experimental_parameters: Table 3B
The reader will find reported IC50 values listed item by item below.

Answered cases to consult:
{"sample_smiles": "Cc1noc(C)c1-c1ccc2nccc(C(=O)NCC(=O)N3CC(F)(F)C[C@H]3C#N)c2c1", "study_target": "recombinant human DPPIV (rhDPPIV) (Homo sapiens (Human))", "IC50": "> 10 µM"}
{"sample_smiles": "N#C[C@@H]1CC(F)(F)CN1C(=O)CNC(=O)c1ccnc2ccc(-c3cccnc3)cc12", "study_target": "recombinant human DPPIV (rhDPPIV) (Homo sapiens (Human))", "IC50": "> 10 µM"}

Query block: # query: IC50 of entry N#C[C@@H]1CC(F)(F)CN1C(=O)CNC(=O)c1ccnc2ccc(-c3ccc4cc(Cl)ccc4c3)cc12
Result block: 1 to 10 µM

Query block: # query: IC50 of entry N#C[C@@H]1CC(F)(F)CN1C(=O)CNC(=O)c1ccnc2ccc(-c3ccc4[nH]ccc4c3)cc12
Result block: > 10 µM

Query block: # query: IC50 of entry CNC(=O)c1cccc(-c2ccc3nccc(C(=O)NCC(=O)N4CC(F)(F)C[C@H]4C#N)c3c2)c1
Result block: > 10 µM

Query block: # query: IC50 of entry CN1CCc2cc(-c3ccc4nccc(C(=O)NCC(=O)N5CC(F)(F)C[C@H]5C#N)c4c3)ccc2C1=O
Result block: 1 to 10 µM

---

- study_target: circulating FAPα from hamster plasma (Mesocricetus auratus)
- Sequence (A0ABM2XF29 1-761): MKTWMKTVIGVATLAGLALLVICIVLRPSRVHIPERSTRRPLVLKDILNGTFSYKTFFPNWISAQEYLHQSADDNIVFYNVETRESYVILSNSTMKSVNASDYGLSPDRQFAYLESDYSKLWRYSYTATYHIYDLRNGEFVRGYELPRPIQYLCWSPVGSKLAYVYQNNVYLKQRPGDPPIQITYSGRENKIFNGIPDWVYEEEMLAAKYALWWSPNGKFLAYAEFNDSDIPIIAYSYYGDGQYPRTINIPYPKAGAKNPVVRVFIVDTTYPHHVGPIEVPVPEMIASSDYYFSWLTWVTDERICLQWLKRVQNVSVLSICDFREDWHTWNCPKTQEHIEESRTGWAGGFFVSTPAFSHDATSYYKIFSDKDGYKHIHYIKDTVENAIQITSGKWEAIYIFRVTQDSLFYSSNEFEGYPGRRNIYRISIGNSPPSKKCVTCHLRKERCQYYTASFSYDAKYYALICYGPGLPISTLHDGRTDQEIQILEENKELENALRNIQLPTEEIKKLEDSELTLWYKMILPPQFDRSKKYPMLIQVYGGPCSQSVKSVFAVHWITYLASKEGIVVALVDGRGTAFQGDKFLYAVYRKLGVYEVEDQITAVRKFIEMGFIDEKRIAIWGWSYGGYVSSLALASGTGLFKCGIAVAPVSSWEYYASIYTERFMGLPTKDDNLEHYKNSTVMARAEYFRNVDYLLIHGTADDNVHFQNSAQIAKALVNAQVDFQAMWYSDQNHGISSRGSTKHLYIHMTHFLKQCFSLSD
- protocol_description: Ex vivo inhibition of circulating FAPα activity in hamster plasma (PRXS-AMC)
- experimental_parameters: PRXS-AMC substrate
recorded_endpoint: IC50

Query block: # query: IC50 of entry N#C[C@@H]1CC(F)(F)CN1C(=O)CNC(=O)c1ccnc2ccc(-c3ccc(Cl)cc3)cc12 [Compound 2]
Result block: < 1000 nM

---

- study_target: recombinant human FAPα (rhFAPα) (Homo sapiens (Human), UniProt Q12884)
- Sequence (Q12884 whole entry): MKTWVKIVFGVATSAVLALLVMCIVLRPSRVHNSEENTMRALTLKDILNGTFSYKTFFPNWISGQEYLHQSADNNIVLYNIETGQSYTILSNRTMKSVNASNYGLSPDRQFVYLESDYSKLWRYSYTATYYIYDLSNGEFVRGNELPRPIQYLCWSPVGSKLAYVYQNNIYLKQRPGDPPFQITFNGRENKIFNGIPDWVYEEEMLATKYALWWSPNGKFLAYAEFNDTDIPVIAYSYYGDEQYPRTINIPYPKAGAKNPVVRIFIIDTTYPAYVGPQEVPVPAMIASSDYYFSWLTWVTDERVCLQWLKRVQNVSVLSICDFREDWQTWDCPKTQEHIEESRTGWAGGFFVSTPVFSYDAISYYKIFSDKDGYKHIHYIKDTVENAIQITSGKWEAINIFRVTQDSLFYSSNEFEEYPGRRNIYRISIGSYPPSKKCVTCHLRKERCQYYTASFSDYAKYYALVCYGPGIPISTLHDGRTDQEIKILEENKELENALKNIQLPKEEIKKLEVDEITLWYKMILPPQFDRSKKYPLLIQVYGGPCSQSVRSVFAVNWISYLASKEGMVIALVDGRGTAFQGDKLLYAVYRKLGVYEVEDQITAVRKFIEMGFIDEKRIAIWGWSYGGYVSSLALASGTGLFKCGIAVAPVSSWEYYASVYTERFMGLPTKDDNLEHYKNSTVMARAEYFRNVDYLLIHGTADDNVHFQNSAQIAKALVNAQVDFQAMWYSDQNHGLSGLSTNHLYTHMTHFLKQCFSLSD
- protocol_description: FAPα enzymatic exopeptidase (dipeptidase) activity assay, Z-Gly-Pro-AMC
- Format: biochemical
- experimental_parameters: 1 μM test compound; exopeptidase; Table 3B; read-out: rhFAPα (% exo inh @ 1 μM)
The reader will find reported inhibition at 1 µM values listed item by item below.

Query block: # query: inhibition at 1 µM of entry CC(C)[C@@H](NC(=O)c1ccnc2ccc(-c3ccc(Cl)cc3)cc12)C(=O)N1CC(F)(F)C[C@H]1C#N
Result block: < 25%

Query block: # query: inhibition at 1 µM of entry Cc1noc(C)c1-c1ccc2nccc(C(=O)NCC(=O)N3CC(F)(F)C[C@H]3C#N)c2c1
Result block: > 50%

---

- study_target: recombinant human DPP9 (rhDPP9) (Homo sapiens (Human), UniProt Q86TI2)
- Sequence (Q86TI2 whole entry): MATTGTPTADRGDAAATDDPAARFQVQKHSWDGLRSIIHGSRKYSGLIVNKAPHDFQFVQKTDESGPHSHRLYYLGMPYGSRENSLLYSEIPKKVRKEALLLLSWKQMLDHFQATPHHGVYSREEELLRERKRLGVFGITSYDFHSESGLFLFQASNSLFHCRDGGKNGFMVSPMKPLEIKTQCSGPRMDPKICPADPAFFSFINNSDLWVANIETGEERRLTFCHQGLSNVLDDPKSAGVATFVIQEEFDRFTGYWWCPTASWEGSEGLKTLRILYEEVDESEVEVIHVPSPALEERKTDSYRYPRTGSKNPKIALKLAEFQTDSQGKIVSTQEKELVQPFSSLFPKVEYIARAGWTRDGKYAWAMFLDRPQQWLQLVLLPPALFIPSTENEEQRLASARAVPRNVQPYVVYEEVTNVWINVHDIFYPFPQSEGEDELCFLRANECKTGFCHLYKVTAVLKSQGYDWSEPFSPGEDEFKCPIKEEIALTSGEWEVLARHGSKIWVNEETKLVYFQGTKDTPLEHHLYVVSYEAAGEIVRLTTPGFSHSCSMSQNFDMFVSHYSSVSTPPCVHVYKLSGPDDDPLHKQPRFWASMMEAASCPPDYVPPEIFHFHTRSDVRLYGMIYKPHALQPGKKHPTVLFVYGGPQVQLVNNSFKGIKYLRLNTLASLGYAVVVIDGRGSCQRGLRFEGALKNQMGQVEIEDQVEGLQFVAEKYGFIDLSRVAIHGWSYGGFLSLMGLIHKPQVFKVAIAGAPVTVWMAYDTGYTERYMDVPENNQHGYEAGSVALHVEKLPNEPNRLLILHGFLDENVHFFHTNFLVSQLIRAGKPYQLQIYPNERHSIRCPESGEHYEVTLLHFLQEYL
- protocol_description: DPP9 enzymatic activity assay
- Assay type: biochemical
- experimental_parameters: Table 3A
recorded_endpoint: IC50

Query block: # query: IC50 of entry N#C[C@@H]1CC(F)(F)CN1C(=O)CNC(=O)c1ccnc2ccc(-c3ccc(Cl)cc3)cc12 [Compound 2]
Result block: < 1000 nM

---

The reader will find reported pIC50 values listed item by item below.
- study_target: recombinant human DPP9 (rhDPP9) (Homo sapiens (Human), UniProt Q86TI2)
- protocol_description: Inhibition of DPP9 activity, 10 ng rhDPP9, H-Gly-Pro-AMC
- Type: biochemical
- experimental_parameters: Table 3B
pIC50: −log10 of the molar value.

{"sample_smiles": "N#C[C@@H]1CC(F)(F)CN1C(=O)CNC(=O)c1ccnc2ccc(/C=C/c3ccccc3)cc12", "pIC50": "> 6.00"}
{"sample_smiles": "N#C[C@@H]1CC(F)(F)CN1C(=O)CNC(=O)c1ccnc2ccc(-c3ccc(OC(F)(F)F)cc3)cc12", "pIC50": "> 6.00"}

Please look at the following compound next.
Query block: # query: pIC50 of entry N#C[C@@H]1CC(F)(F)CN1C(=O)CNC(=O)c1ccnc2ccc(/C=C/c3ccc4c(c3)CCNC4=O)cc12
Result block: > 6.00

---

The reader will find reported pIC50 values listed item by item below.
- study_target: recombinant human DPPIV (rhDPPIV) (Homo sapiens (Human), UniProt P27487)
- Sequence (P27487 whole entry): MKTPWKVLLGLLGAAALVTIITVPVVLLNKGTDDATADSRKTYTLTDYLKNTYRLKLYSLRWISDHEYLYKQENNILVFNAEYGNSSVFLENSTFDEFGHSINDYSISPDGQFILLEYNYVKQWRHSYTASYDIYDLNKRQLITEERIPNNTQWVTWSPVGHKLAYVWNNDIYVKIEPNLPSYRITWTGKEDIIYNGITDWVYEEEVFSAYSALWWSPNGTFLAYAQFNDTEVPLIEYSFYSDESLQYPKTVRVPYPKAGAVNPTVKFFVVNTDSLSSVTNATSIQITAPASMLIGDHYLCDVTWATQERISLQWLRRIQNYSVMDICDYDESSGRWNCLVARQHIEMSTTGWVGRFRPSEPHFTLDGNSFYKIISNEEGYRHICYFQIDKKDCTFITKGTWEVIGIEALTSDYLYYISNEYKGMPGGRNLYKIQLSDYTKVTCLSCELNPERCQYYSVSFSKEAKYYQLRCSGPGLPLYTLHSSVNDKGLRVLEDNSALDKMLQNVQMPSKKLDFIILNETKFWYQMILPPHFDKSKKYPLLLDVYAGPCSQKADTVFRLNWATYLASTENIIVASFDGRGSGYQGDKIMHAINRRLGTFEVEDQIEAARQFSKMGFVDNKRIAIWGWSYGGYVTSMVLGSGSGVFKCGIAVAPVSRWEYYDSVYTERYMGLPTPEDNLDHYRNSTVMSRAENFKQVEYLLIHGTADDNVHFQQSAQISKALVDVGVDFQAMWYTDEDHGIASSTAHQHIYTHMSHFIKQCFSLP
- protocol_description: DPPIV enzymatic activity assay
- Assay type: biochemical
- experimental_parameters: Table 3B
pIC50: −log10 of the molar value.

{"compound": "CC(C)(C)c1ccc(-c2ccc3nccc(C(=O)NCC(=O)N4CC(F)(F)C[C@H]4C#N)c3c2)cc1 [Compound 7]", "recorded_endpoint": "pIC50", "reported_measurement": "< 5.00"}

Query block: # query: pIC50 of entry N#C[C@@H]1CC(F)(F)CN1C(=O)CNC(=O)c1ccnc2ccc(-c3cccc4c3CCC(=O)N4)cc12 [Compound 108]
Result block: < 5.00

---

The reader will find reported IC50 values listed item by item below.
- System: human AML cell line MV4-11
- protocol_description: Cytotoxicity assay in human leukemia cell lines (Cell-Titer Glo)
- experimental_parameters: Homo sapiens, MV4-11, 48 h, read-out: MV4-11 viability IC50, μM

Answered cases to consult:
{"sample_smiles": "N#C[C@@H]1CC(F)(F)CN1C(=O)CNC(=O)c1ccnc2ccc(-c3ccc4cc(Cl)ccc4c3)cc12", "IC50": "3 to 10 µM"}
{"sample_smiles": "CN1C(=O)CCc2cc(-c3ccc4nccc(C(=O)NCC(=O)N5CC(F)(F)C[C@H]5C#N)c4c3)ccc21", "IC50": "< 3 µM"}
{"sample_smiles": "N#C[C@@H]1CC(F)(F)CN1C(=O)CNC(=O)c1ccnc2ccc(-c3ccc(Cl)cc3)cc12", "IC50": "3 to 10 µM"}
{"sample_smiles": "COc1ccc(-c2ccc3nccc(C(=O)NCC(=O)N4CC(F)(F)C[C@H]4C#N)c3c2)cc1", "IC50": "3 to 10 µM"}
{"sample_smiles": "N#C[C@@H]1CC(F)(F)CN1C(=O)CNC(=O)c1ccnc2ccc(/C=C/c3ccncc3)cc12", "IC50": "< 3 µM"}

Query block: # query: IC50 of entry N#C[C@@H]1CC(F)(F)CN1C(=O)CNC(=O)c1ccnc2ccc(-c3ccc4c(c3)CCC(=O)N4)cc12
Result block: > 10 µM

Query block: # query: IC50 of entry N#C[C@@H]1CC(F)(F)CN1C(=O)CNC(=O)c1ccnc2ccc(/C=C/c3cccnc3)cc12
Result block: 3 to 10 µM

Query block: # query: IC50 of entry N#C[C@@H]1CC(F)(F)CN1C(=O)CNC(=O)c1ccnc2ccc(/C=C/c3ccc4c(c3)CCNC4=O)cc12
Result block: > 10 µM

---

- study_target: recombinant human DPPIV (rhDPPIV) (Homo sapiens (Human))
- protocol_description: DPPIV enzymatic activity assay
- experimental_parameters: Table 3B
recorded_endpoint: IC50

Answered cases to consult:
{"sample_smiles": "N#C[C@@H]1CC(F)(F)CN1C(=O)CNC(=O)c1ccnc2ccc(-c3cnn(C4CC4)c3)cc12", "study_target": "recombinant human DPPIV (rhDPPIV) (Homo sapiens (Human))", "reported_measurement": "1 to 10 µM"}
{"sample_smiles": "N#C[C@@H]1CC(F)(F)CN1C(=O)CNC(=O)c1ccnc2ccc(-c3ccc4c(c3)CCNC4=O)cc12", "study_target": "recombinant human DPPIV (rhDPPIV) (Homo sapiens (Human))", "reported_measurement": "< 1 µM"}
{"sample_smiles": "N#C[C@@H]1CC(F)(F)CN1C(=O)CNC(=O)c1ccnc2ccc(-c3ccc4c(c3)CCNC4)cc12", "study_target": "recombinant human DPPIV (rhDPPIV) (Homo sapiens (Human))", "reported_measurement": "> 10 µM"}
{"sample_smiles": "N#C[C@@H]1CC(F)(F)CN1C(=O)CNC(=O)c1ccnc2ccc(-c3ccc4c(c3)CCCN4)cc12", "study_target": "recombinant human DPPIV (rhDPPIV) (Homo sapiens (Human))", "reported_measurement": "1 to 10 µM"}
{"sample_smiles": "N#C[C@@H]1CC(F)(F)CN1C(=O)CNC(=O)c1ccnc2ccc(/C=C/c3cccnc3)cc12", "study_target": "recombinant human DPPIV (rhDPPIV) (Homo sapiens (Human))", "reported_measurement": "> 10 µM"}
{"sample_smiles": "C[C@@H](NC(=O)c1ccnc2ccc(-c3ccc(Cl)cc3)cc12)C(=O)N1CC(F)(F)C[C@H]1C#N", "study_target": "recombinant human DPPIV (rhDPPIV) (Homo sapiens (Human))", "reported_measurement": "> 10 µM"}

Query block: # query: IC50 of entry CC(=O)Nc1cccc(-c2ccc3nccc(C(=O)NCC(=O)N4CC(F)(F)C[C@H]4C#N)c3c2)c1
Result block: > 10 µM

Query block: # query: IC50 of entry N#C[C@@H]1CC(F)(F)CN1C(=O)CNC(=O)c1ccnc2ccc(-c3ccc4c(c3)CNC4=O)cc12
Result block: < 1 µM

Query block: # query: IC50 of entry CNC(=O)c1ccc(-c2ccc3nccc(C(=O)NCC(=O)N4CC(F)(F)C[C@H]4C#N)c3c2)cc1
Result block: > 10 µM

Query block: # query: IC50 of entry N#C[C@@H]1CC(F)(F)CN1C(=O)CNC(=O)c1ccnc2ccc(/C=C/c3ccc4c(c3)CCN4)cc12
Result block: > 10 µM

Query block: # query: IC50 of entry N#C[C@@H]1CC(F)(F)CN1C(=O)CNC(=O)c1ccnc2ccc(/C=C/c3ccc4[nH]ncc4c3)cc12
Result block: < 1 µM

Query block: # query: IC50 of entry COCCOc1ccc(-c2ccc3nccc(C(=O)NCC(=O)N4CC(F)(F)C[C@H]4C#N)c3c2)cn1
Result block: > 10 µM

Query block: # query: IC50 of entry CN1C(=O)CCc2cc(-c3ccc4nccc(C(=O)NCC(=O)N5CC(F)(F)C[C@H]5C#N)c4c3)ccc21
Result block: > 10 µM

Query block: # query: IC50 of entry N#C[C@@H]1CC(F)(F)CN1C(=O)CNC(=O)c1ccnc2ccc(-c3ccc(OC(F)(F)F)cc3)cc12
Result block: > 10 µM
